target.under.test: adenovirus type 13 vector particles (human adenovirus type 13)
assay.overview: SPR; electrostatic (fast) component of one-to-two model
metric.name: pKd
Numbers only, as −log10 of the molar value.

In: Which pKd is listed for human platelet factor 4 (natural protein) EAEEDGDLQCLCVKTTSQVRPRHITSLEVIKAGPHCPTAQLIATLKNGRKICLDLQAPLYKKIIKKLLES ?
Out: 6.11
